test system: K562; experiment: NCI tumour cell line growth inhibition, 48 h
Activity calls are given as the source filed them. Cut-off read from the data, not from the text of the source: active = GI50 up to about 1.1 µM and inactive = higher.
Observable: GI50

Example compounds with recorded GI50:
[[record]]
compound = "O=C(CCN(C(=O)O)S(=O)(=O)c1ccc(NC(=O)c2ccccc2)cc1)NC1CCCCC1"
observable = "GI50"
result = "27.4 µM (inactive)"

[[record]]
compound = "Oc1nc2cc(Cl)ccc2nc1/C(=N\\Nc1ccccc1)C(O)c1ccc2c(c1)OCO2 (centres undefined)"
observable = "GI50"
result = "> 100 µM (inactive)"

[[record]]
compound = "C=C1c2nc3ccccc3n2C=C(c2ccc(Cl)cc2)N1c1ccc(OCCN2CCCCC2)cc1"
observable = "GI50"
result = "> 45 µM (inactive)"

[[record]]
compound = "CC1C=CC(O)[C@]2(CO)CC3(CCC12)OCCO3 (some centres undefined)"
observable = "GI50"
result = "> 100 µM (inactive)"

[[record]]
compound = "Cn1c(=O)c2c(nc3n2CCCC(=O)N3CCCCl)n(C)c1=O"
observable = "GI50"
result = "> 100 µM (inactive)"


Look up GI50 for the entries below, preserving their order.
1. Cc1cc(S(=O)(=O)[N-]/C(=N/S(=O)(=O)c2ccc(Cl)cc2)[n+]2ccc(N(C)C)cc2)c(S)cc1Cl
2. CSC1=NS(=O)(=O)c2cc(C(=O)NN(C)C(=O)c3cc4c(cc3Cl)SC(SC)=NS4(=O)=O)c(Cl)cc2S1
3. COc1cccc(/C=N/NC(=O)CN(C)C)c1O
4. CC1(C)CCC2(C(=O)OC3OC(CO)C(O)C(O)C3O)CCC3(CO)C(=CCC4C5(C)CC(O)C(O)C(C)(C(=O)OC6OC(CO)C(O)C(O)C6O)C5CCC43C)C2C1 (centres undefined)

A)
["1.92 µM (inactive)", "> 10 µM (inactive)", "> 100 µM (inactive)", "> 100 µM (inactive)"]

* * *

test system: UACC-257; experiment: NCI tumour cell line growth inhibition, 48 h
The source made the active and inactive calls. Cut-off read from the data, not from the text of the source: active = GI50 up to about 1.1 µM and inactive = higher.
Assignment: determine reported GI50 for the given molecules.

[[record]]
molecular_string = "C/C(=N\\NC(=S)Nc1ccc(C)cc1)c1nc2cccnc2[nH]1"
result = "2.38 µM (inactive)"

[[record]]
molecular_string = "CC1=C(C(=O)Nc2cc(F)c(F)cc2F)C(c2ccc([N+](=O)[O-])cc2)C(C(=O)Nc2cc(F)c(F)cc2F)=C(C)N1"
result = "28.7 µM (inactive)"

[[record]]
molecular_string = "O=C(Nc1ccc(Cl)cc1)c1cc(S(=O)(=O)Nc2nc3cccnc3[nH]2)c(SSc2cc(Cl)c(C(=O)Nc3ccc(Cl)cc3)cc2S(=O)(=O)Nc2nc3cccnc3[nH]2)cc1Cl"
result = "> 100 µM (inactive)"


Attention now turns to another entry.
Q) If you can, please state the reported GI50 value of "CC(=O)N[C@@H](Cc1ccc(O)cn1)C(=O)NC1CCCCC1" .
A) > 100 µM (inactive)

* * *

test system: IGROV-1; test: NCI tumour cell line growth inhibition, 48 h
Activity calls are given as the source filed them. No stated cut-off is given here; in the data, active = GI50 up to about 1.1 µM and inactive = higher.
Select the matching outcome among t = active, f = inactive

[[record]]
compound = "N#Cc1nc(C2=C(Cl)c3ccccc3OC2)[nH]c1C#N"
label_value = "f"

[[record]]
compound = "Cc1noc(/N=C2\\C=C(Nc3onc(C)c3C)C(=O)c3ccccc32)c1C"
label_value = "f"

[[record]]
compound = "NC12CC3CC(C1)CC(Cl)(C3)C2"
label_value = "f"

[[record]]
compound = "CC1(C)N=C(N)N=C(N)N1c1cccc(CSc2ccccc2)c1"
label_value = "t"

[[record]]
compound = "COc1cc(/C=C(\\C#N)c2ccccc2)cc(OC)c1"
label_value = "f"

[[record]]
compound = "C[Si](C)(C)/C(Br)=C\\CCN1C(=O)CCC1O (configuration not stated)"
label_value = "f"

[[record]]
compound = "CC1(C)CC2=C(Sc3ccccc3N2)C(=O)C1C(=O)C(=O)Nc1cccc([N+](=O)[O-])c1 (configuration not stated)"
label_value = "f"

[[record]]
compound = "NC(=O)N/N=C1/CCC(O)CC1CC(=O)O (configuration not stated)"
label_value = "f"

[[record]]
compound = "C/C(=N\\NC(=S)Nc1ccc(C)cc1)c1nc2cccnc2[nH]1"
label_value = "f"

[[record]]
compound = "O=C1Nc2ccc(Br)cc2/C1=N/NC(=S)Nc1ccc(F)cc1"
label_value = "t"


Q) Per the records of this test, what outcome belongs to "COc1c(O)cc2c(c1O)C(=O)/C(=C/c1ccc(O)cc1)CO2" ?
A) f

Q) Per the records of this test, what outcome belongs to CCOC(=O)OC1C(Br)C2CCC1(C)C2(C)C (configuration not stated) ?
A) f

* * *

Assignment: determine reported GI50 for the given molecules.
tested on: XF498; assay: NCI tumour cell line growth inhibition, 48 h
The source made the active and inactive calls. No stated cut-off is given here; in the data, active = GI50 up to about 1.1 µM and inactive = higher. Non-standard residues stand in square brackets, D forms with d. Residues, ends and D or L forms follow the SMILES beside them.

Example molecules with recorded GI50:
[[record]]
molecule = "CC(C)C[C@H](NC(=O)[C@H](CC(C)C)NC(=O)[C@@H](Cc1c[nH]c2ccccc12)NC(=O)[C@H](Cc1ccccc1)NC(=O)[C@@H](Cc1c[nH]c2ccccc12)NC(=O)[C@H](CCC(N)=O)NC(=O)[C@H](CCC(N)=O)NC(=O)[C@H]1CCCN1C(=O)[C@@H](N)CCCCN)C(N)=O (H-K[dP]QQ[dW]F[dW]LL-NH2)"
observable = "GI50"
result = "> 100 µM (inactive)"

[[record]]
molecule = "CC(C)=CCCC(C)[C@H]1CC(O)C2(C)C3=CCC4C(C)(C)[C@@H](O)CC[C@]4(C)C3=CC[C@]12C (stereo partly specified)"
observable = "GI50"
result = "8.34 µM (inactive)"

[[record]]
molecule = "CCc1cc2c(O)c(c1)Cc1cc(CC)cc(c1O)Cc1cc(CC)cc(c1O)Cc1cc(CC)cc(c1O)Cc1cc(CC)cc(c1O)Cc1cc(CC)cc(c1O)Cc1cc(CC)cc(c1O)C2"
observable = "GI50"
result = "48.2 µM (inactive)"

[[record]]
molecule = "NC12CC3CC(C1)CC(Cl)(C3)C2"
observable = "GI50"
result = "> 100 µM (inactive)"

[[record]]
molecule = "CCOC(=O)Cn1c2ccccc2c(=O)c2cc(C)c(C)c(C#N)c21"
observable = "GI50"
result = "30.2 µM (inactive)"


Q) If you can, please state the reported GI50 value of "Cc1c2ccccc2cc2ccc3oc([N+](=O)[O-])cc3c12" .
A) > 100 µM (inactive)

* * *

system: SF-295; test: NCI tumour cell line growth inhibition, 48 h
Calls of active or inactive are those of the source. No stated cut-off is given here; in the data, active = GI50 up to about 1.1 µM and inactive = higher.
Observable: GI50

Example compounds with recorded GI50:
[[record]]
compound = "Cc1cc2c(cc1C)[n+]([O-])c(C(=O)C/C(=N/NC(=O)c1ccccc1O)C(=O)Nc1ccccc1C(C)C)c(C)[n+]2[O-]"
system_under_test = "SF-295"
observable = "GI50"
result = "> 100 µM (inactive)"

[[record]]
compound = "O=C(Nc1ccccc1Cl)c1ccc([N+](=O)[O-])cc1"
system_under_test = "SF-295"
observable = "GI50"
result = "46.7 µM (inactive)"

[[record]]
compound = "Oc1nc2cc(Cl)ccc2nc1/C(=N\\Nc1ccccc1)C(O)c1ccc2c(c1)OCO2 (stereo unspecified)"
system_under_test = "SF-295"
observable = "GI50"
result = "> 100 µM (inactive)"


Look up GI50 for the entries below, preserving their order.
1. c1cc2c(c(NC3=NCCO3)c1)CCC2
2. CCOc1ccc(NC(=O)CC2SC(N)=NC2=O)cc1 (stereo unspecified)
3. COC(=O)c1ccc2c(c1)CC1(C2)Cc2ccc3c(c2C1)CCC3 (stereo unspecified)

A)
["> 100 µM (inactive)", "> 100 µM (inactive)", "24.9 µM (inactive)"]

* * *

tested on: DU-145; test: NCI tumour cell line growth inhibition, 48 h
Calls of active or inactive are those of the source. No stated cut-off is given here; in the data, active = GI50 up to about 1.1 µM and inactive = higher.
Select the matching outcome among active, inactive

Here are 6 molecules together with their reported answers.
[[record]]
molecule = "N[C@@H]1c2c(Br)sc(Br)c2[C@H](O)[C@@H]1O"
system_under_test = "DU-145"
label_value = "inactive"

[[record]]
molecule = "CS(=O)(=O)N1CC(CCl)c2ccc(O)cc21 (stereo unspecified)"
system_under_test = "DU-145"
label_value = "inactive"

[[record]]
molecule = "COc1ccc(OC)c2c1C(=O)C(O)=C(Cl)C2=O"
system_under_test = "DU-145"
label_value = "inactive"

[[record]]
molecule = "CC(C)NC(=O)OCc1c(COC(=O)NC(C)C)n(C)c2c1ccc1sccc12"
system_under_test = "DU-145"
label_value = "inactive"

[[record]]
molecule = "CCc1c(Cl)c(C)cc(O)c1Cl"
system_under_test = "DU-145"
label_value = "inactive"

[[record]]
molecule = "CN(C)CCn1c(=O)c2ccc3c4c(nn3CCN(C)C)c3cc(N)ccc3n(c1=O)c24"
system_under_test = "DU-145"
label_value = "active"


Q) Per the records of this test, what outcome belongs to "C=C1c2nc3ccccc3n2C=C(c2ccc(Cl)cc2)N1c1ccc(OCCN2CCCCC2)cc1" ?
A) inactive

Q) Per the records of this test, what outcome belongs to CCOC(=O)C1=CC(C)(C(=O)OCC)Nc2c(nc(OC)[nH]c2=O)N1 (stereo unspecified) ?
A) inactive

Q) Per the records of this test, what outcome belongs to "COc1ccc(N(C)S(=O)(=O)c2ccccc2)cc1" ?
A) inactive

Q) Per the records of this test, what outcome belongs to "Cc1cc(C)nc(NC(=S)Nc2ccc(Cl)cc2)c1" ?
A) inactive

Q) Per the records of this test, what outcome belongs to COC1OC2COC(=O)c3cc(O)c(O)c(O)c3-c3c(cc(O)c(O)c3O)C(=O)OC2C(O)C1O (stereo unspecified) ?
A) inactive

Measured values drawn from ChEMBL document CHEMBL1201862 for this set.
